Test system: SK-MEL-5 melanoma
assay-remarks: NCI tumour cell line growth inhibition, 48 h
Some molecules, each annotated with its measured TGI.
Report the value in µM with no unit label.

Example entries begin here.
{"molecule": "CC(=O)O[C@H]1CC[C@H]2[C@@H]3CCC4=C/C(=N/OCCN(C)C)CC[C@]4(C)[C@H]3CC[C@]12C", "TGI, µM": 9.62}
{"molecule": "O=C(CSC(c1ccccc1)c1ccccc1)N/N=C/c1ccccc1Cl", "TGI, µM": 47.2}
{"molecule": "Nc1nc(Cl)c(N)c(NCC2(CO)CCC(CCc3ccccc3)C2)n1 (centres undefined)", "TGI, µM": 15.1}
{"molecule": "COc1ccc2c(CCCc3ccc(Cl)cc3Cl)c3[n+](cc2c1OC)CCc1cc2c(cc1-3)OCO2", "TGI, µM": 0.561}
{"molecule": "COc1cc(C2c3cc4c(cc3[C@@H](Nc3ccc([N+](=O)[O-])cc3)C3COC(=O)[C@H]23)OCO4)cc(OC)c1O (some centres undefined)", "TGI, µM": 3.94}
{"molecule": "Cc1cc(Cl)nc(N(CCCNc2ccnc3cc(Cl)ccc23)Cc2cccs2)n1", "TGI, µM": 2.79}

// next item, TGI requested
Prompt line: Item: C=C1C(=O)O[C@H]2[C@H]1CC/C(COC(=O)CCCCCCCC(=O)OC/C1=C/CC[C@@]3(C)O[C@H]3[C@H]3OC(=O)C(=C)[C@@H]3CC1)=C\CC[C@@]1(C)O[C@@H]21 Test system: SK-MEL-5 melanoma Read-out: TGI Value: ?
Response line: 4.1

* * *

Tested on: MALME-3M melanoma
assay-remarks: NCI tumour cell line growth inhibition, 48 h; in the data active means GI50 below about 0.43 µM; inactive means the rest
Give your call using only these classes: 1 (yes) (active), 0 (no) (inactive)

Recorded results for 5 compounds are shown here.
{"compound": "O=C(NCc1ccco1)C1CCN(S(=O)(=O)c2ccc(Cl)cc2)CC1", "target-or-system": "MALME-3M melanoma", "label-value": "0 (no)"}
{"compound": "COc1ccc(/C=C2\\COc3ccc(O)c(O)c3C2=O)cc1OC", "target-or-system": "MALME-3M melanoma", "label-value": "0 (no)"}
{"compound": "C[C@@]1(C(=O)O)CCC[C@]2(C)C1CC[C@]13C[C@@](O)(CO)[C@](O)(CC[C@]12O)C3 (stereo partly drawn)", "target-or-system": "MALME-3M melanoma", "label-value": "0 (no)"}
{"compound": "C(=C\\c1ccncc1)/c1ccncc1", "target-or-system": "MALME-3M melanoma", "label-value": "0 (no)"}
{"compound": "Cc1nn(Cc2ccccc2)cc1C(=O)Nc1sc2c(c1C(N)=O)CCC(=O)C2", "target-or-system": "MALME-3M melanoma", "label-value": "0 (no)"}

Prompt line: Lab log entry: C[C@H]1COCCN1c1nc(-c2cnc(N)cc2C(F)F)nc(N2CCOCC2)n1 — outcome as called in the assay?
Response line: 1 (yes)

Prompt line: Lab log entry: [Cl][Hg][c]1ccc2ccccc2c1 — outcome as called in the assay?
Response line: 0 (no)

Prompt line: Lab log entry: CNCC(=O)NC(CO)C(=O)NC(CO)C(=O)NC1C(C(N)=O)OC(n2ccc(N)nc2=O)C(O)C1O (stereo not drawn) — outcome as called in the assay?
Response line: 0 (no)

Prompt line: Lab log entry: CC(=O)O[C@@H]1C2=C(C)C3(CC3)[C@@](C)(O)C(=O)C2=C[C@@]1(C)CO — outcome as called in the assay?
Response line: 0 (no)

Prompt line: Lab log entry: CC(C)c1[nH]nc2c(NCc3ccc(-c4ccccn4)cc3)nc(SCCN(C)C)nc12 — outcome as called in the assay?
Response line: 1 (yes)

Prompt line: Lab log entry: O=C1c2ccn(CCCNC(CO)(CO)CO)c2C(=O)c2c1c(O)c1ccccc1c2O — outcome as called in the assay?
Response line: 0 (no)

Prompt line: Lab log entry: CC1=NN(c2cccc(Cl)c2)C(=O)/C1=C\C=C\c1ccccc1 — outcome as called in the assay?
Response line: 0 (no)

Prompt line: Lab log entry: COC(=O)c1c2c(c(C)[n+]([O-])c1C)C(=O)C(NCc1ccc(F)cc1)=CC2=O — outcome as called in the assay?
Response line: 1 (yes)
